Source of measurements: patent US20260048066A1

- ASSAY PROTOCOL: LUCIDITY trial: plasma HMT/MT levels
- Assay type: in vivo
- CONDITIONS USED: human, oral, 8 mg/day, 8 mg/day LMTM arm, sub-group high, steady state 1 h post-dose, read-out: Mean HMT conc
PARAMETER: concentration at 1 h (ng/mL)
Report the value in ng/mL with no unit label.

Q: Request the reported concentration at 1 h associated with CN(C)c1ccc2c(c1)Sc1cc(N(C)C)ccc1N2.CS(=O)(=O)O.CS(=O)(=O)O
A: 0.26

###

- ASSAY PROTOCOL: LUCIDITY trial: plasma HMT/MT levels
- Type: in vivo
- CONDITIONS USED: human, oral, 16 mg/day, 16 mg/day LMTM arm, sub-group high, steady state 1 h post-dose, read-out: Mean HMT conc
PARAMETER: concentration at 1 h (ng/mL)
Report the value in ng/mL with no unit label.

Q: Request the reported concentration at 1 h associated with CN(C)c1ccc2c(c1)Sc1cc(N(C)C)ccc1N2.CS(=O)(=O)O.CS(=O)(=O)O
A: 0.5
